Tested on: SKVLB
Experiment: Microculture tetrazolium assay
Type: cell-based
Settings: IC50 ratio SKVLB/SKOV3
Lab note: compare VLB/OV3 against 2. Equal or greater, write T. Smaller, write F.

Problem: Test whether the molecule C[C@@H]1O[C@@H](O[C@@H]2O[C@@H]([C@H](O)CO)CC3=C2C(=O)c2cc4ccccc4c(O)c2C3=O)C[C@H](NC(=O)C(F)(F)F)[C@@H]1O [BCH-1997] records VLB/OV3 of 2 or higher.
Solution: T

Problem: Test whether the molecule CC(=O)OCC1(C2CC3=C(C(=O)c4c(cc5ccccc5c4OC(C)=O)C3=O)C(O)O2)OCCCO1 (centres unmarked) [BCH-733] records VLB/OV3 of 2 or higher.
Solution: F

Problem: Test whether the molecule C[C@@H]1O[C@@H](O[C@H]2O[C@H](COc3ccccc3)CC3=C2C(=O)c2cc4ccccc4c(O)c2C3=O)C[C@H](NC(=O)C(F)(F)F)[C@@H]1O (mixture of isomers) [BCH-2048] records VLB/OV3 of 2 or higher.
Solution: T

Problem: Test whether the molecule CC(=O)[C@@H]1Cc2c(O)c3c(c(O)c2[C@@H](O[C@H]2O[C@H](CO)[C@@H](O)[C@H](O)[C@H]2N)O1)C(=O)c1ccccc1C3=O [BCH-1685] records VLB/OV3 of 2 or higher.
Solution: T

Problem: Test whether the molecule C[C@@H]1O[C@@H](O[C@H]2O[C@H](C(=O)C(C)(C)C)CC3=C2C(=O)c2cc4ccccc4c(O)c2C3=O)C[C@H](NC(=O)C(F)(F)F)[C@@H]1O (mixture of isomers) [BCH-2198] records VLB/OV3 of 2 or higher.
Solution: F
